- Tested on: HSV-1
- EXPERIMENT SUMMARY: Plaque reduction assay, HSV-1 clinical isolates on Vero cells
- Assay type: cell-based
- CONDITION DETAILS: Human alphaherpesvirus 1, Vero, isolate HPG032, HSV-1 TK 183* (437_438insA); read-out: Drug susceptibility Foscarnet (FOS)
MEASUREMENT KIND: IC50

{"columns": ["COMPOUND", "MEASUREMENT KIND", "OBSERVED MEASUREMENT"],
 "data": [
  ["O=C(O)P(=O)(O)O [Foscarnet, foscarnet]", "IC50", "< 250 µM"]
]}

----------
- Tested on: HSV-1
- EXPERIMENT SUMMARY: Plaque reduction assay, HSV-1 clinical isolates on Vero cells
- Assay type: cell-based
- CONDITION DETAILS: Human alphaherpesvirus 1, Vero, isolate HPG053, HSV-1 pol S911N (2732G>A); also TK R176W, pol A1169T; read-out: Drug susceptibility Foscarnet (FOS)
- Text: Viral isolates were used to infect a sub-confluent monolayer of Vero cells at a concentration of 75 or 50 plaque forming units (PFU) per well for HSV-1 and HSV-2, respectively. […] CMC medium typically used to create a semisolid interface and prevents indiscrimate viral spreading. Other materials (e.g. agar) may also be used to create this interface. […]
pIC50: −log10 of the molar value.
MEASUREMENT KIND: pIC50

{"columns": ["STRUCTURE SMILES STRING", "MEASUREMENT KIND", "OBSERVED MEASUREMENT"],
 "data": [
  ["O=C(O)P(=O)(O)O", "pIC50", "< 3.40"]
]}
